tested system: Human immunodeficiency virus type 1 integrase (Human immunodeficiency virus 1, UniProt Q7ZJM1)
Sequence (Q7ZJM1 whole entry): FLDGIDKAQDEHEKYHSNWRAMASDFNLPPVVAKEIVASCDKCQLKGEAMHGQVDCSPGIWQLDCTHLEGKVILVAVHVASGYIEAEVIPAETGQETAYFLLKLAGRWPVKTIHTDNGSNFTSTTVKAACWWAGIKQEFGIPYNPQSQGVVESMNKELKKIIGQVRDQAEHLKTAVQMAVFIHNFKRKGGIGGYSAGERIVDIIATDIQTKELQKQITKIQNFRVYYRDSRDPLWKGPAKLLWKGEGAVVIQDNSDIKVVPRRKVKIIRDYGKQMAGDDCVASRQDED
recorded metric: IC50 (nM)

{"columns": ["molecule", "recorded metric", "uom", "recorded measurement"],
 "data": [
  ["C[C@H]1CO[C@@H]2Cn3cc(C(=O)NCc4ccc(F)cc4F)c(=O)c(O)c3C(=O)N12 [CABOTEGRAVIR]", "IC50", "nM", 3],
  ["C[C@@H]1CCN2C(=O)c3c(O)c(=O)c(C(=O)NCc4ccc(F)cc4)cn3C[C@@H]2O1", "IC50", "nM", 5]
]}

----------
assay notes: Clearance in Beagle dog at 1 mg/kg, iv and 5 mg/kg, po administered as capsule by LC-MS/MS analysis
Type: ADME, organism-based, Canis lupus familiaris
condition notes: in vivo

{"columns": ["smiles record", "clearance / mL/min/kg"],
 "data": [
  ["C[C@H]1CO[C@@H]2Cn3cc(C(=O)NCc4ccc(F)cc4F)c(=O)c(O)c3C(=O)N12", 0.34]
]}

----------
assay notes: Half life in Sprague-Dawley rat at 1 mg/kg, iv and 5 mg/kg, po administered as suspension by LC-MS/MS analysis
Format: ADME, organism-based
condition notes: in vivo
recorded metric: half-life (h)

{"columns": ["molecule", "recorded measurement"],
 "data": [
  ["C[C@@H]1CCO[C@H]2Cn3cc(C(=O)NCc4ccc(F)cc4F)c(=O)c([O-])c3C(=O)N12.[Na+] [DOLUTEGRAVIR SODIUM]", 6.2]
]}

----------
Entries and their measured pIC50 follow.
Tested on: Human immunodeficiency virus
assay notes: Antiviral activity against pseudo Human immunodeficiency virus infected in HEK293T cells after 2 days in presence of human serum albumin
Assay type: functional, organism-based
condition notes: Human immunodeficiency virus 1, HEK-293T, 48 h
pIC50: −log10 of the molar value.

{"columns": ["smiles record", "pIC50"],
 "data": [
  ["CC(C)C[C@@H]1CO[C@H]2Cn3cc(C(=O)NCc4ccc(F)cc4F)c(=O)c(O)c3C(=O)N12", 7.80],
  ["O=C(NCc1ccc(F)cc1)c1cn2c(c(O)c1=O)C(=O)N1CCCO[C@H]1C2", 7.09],
  ["CC1(C)CO[C@H]2Cn3cc(C(=O)NCc4ccc(F)cc4)c(=O)c(O)c3C(=O)N2C1", 6.36],
  ["CC(C)[C@@H]1CO[C@H]2Cn3cc(C(=O)NCc4ccc(F)cc4F)c(=O)c(O)c3C(=O)N21", 7.80],
  ["CC(C)[C@H]1CCN2C(=O)c3c(O)c(=O)c(C(=O)NCc4ccc(F)cc4F)cn3C[C@H]2O1", 8.39],
  ["C[C@@H]1CCN2C(=O)c3c(O)c(=O)c(C(=O)NCc4ccc(F)cc4)cn3C[C@@H]2O1", 7.60],
  ["C[C@H]1CO[C@@H]2Cn3cc(C(=O)NCc4ccc(F)cc4F)c(=O)c(O)c3C(=O)N12", 7.52],
  ["CC[C@H](C)[C@H]1CO[C@@H]2Cn3cc(C(=O)NCc4ccc(F)cc4F)c(=O)c(O)c3C(=O)N12", 6.70],
  ["O=C(NCc1ccc(F)cc1F)c1cn2c(c(O)c1=O)C(=O)N1[C@@H](CC3CCCCC3)CO[C@@H]1C2", 5.51],
  ["C[C@H]1CCN2C(=O)c3c(O)c(=O)c(C(=O)NCc4ccc(F)cc4)cn3C[C@H]2O1", 8.48],
  ["Cc1nnc(C(=O)NC(C)(C)c2nc(C(=O)NCc3ccc(F)cc3)c([O-])c(=O)n2C)o1.[K+]", 8.15],
  ["C[C@@H]1CO[C@H]2Cn3cc(C(=O)NCc4ccc(F)cc4F)c(=O)c(O)c3C(=O)N12", 7.41],
  ["CC(C)[C@H]1CO[C@@H]2Cn3cc(C(=O)NCc4ccc(F)cc4F)c(=O)c(O)c3C(=O)N12", 6.52],
  ["O=C(NCc1ccc(F)cc1)c1cn2c(c(O)c1=O)C(=O)N1CCCO[C@@H]1C2", 8.03],
  ["C[C@H]1CO[C@@H]2Cn3cc(C(=O)NCc4ccc(F)cc4)c(=O)c(O)c3C(=O)N2C1", 8.25],
  ["CC[C@@H]1CO[C@H]2Cn3cc(C(=O)NCc4ccc(F)cc4F)c(=O)c(O)c3C(=O)N12", 7.46],
  ["C[C@H]1CO[C@@H]2Cn3cc(C(=O)NCc4ccc(F)cc4)c(=O)c(O)c3C(=O)N12", 7.30],
  ["C[C@@H]1CCO[C@H]2Cn3cc(C(=O)NCc4ccc(F)cc4F)c(=O)c(O)c3C(=O)N12", 7.66],
  ["O=C(NCc1ccc(F)cc1F)c1cn2c(c(O)c1=O)C(=O)N1[C@H](Cc3ccccc3)CO[C@H]1C2", 8.35],
  ["C[C@@H]1CO[C@H]2Cn3cc(C(=O)NCc4ccc(F)cc4)c(=O)c(O)c3C(=O)N2C1", 6.68],
  ["C[C@H]1CCN2C(=O)c3c(O)c(=O)c(C(=O)NCc4ccc(F)cc4F)cn3C[C@H]2O1", 8.82],
  ["O=C(NCc1ccc(F)cc1F)c1cn2c(c(O)c1=O)C(=O)N1[C@@H](Cc3ccc(O)cc3)CO[C@@H]1C2", 7.66],
  ["O=C(NCc1ccc(F)cc1F)c1cn2c(c(O)c1=O)C(=O)N1[C@@H](CO)CO[C@@H]1C2", 7.43],
  ["CC(C)[C@@H]1CCN2C(=O)c3c(O)c(=O)c(C(=O)NCc4ccc(F)cc4F)cn3C[C@@H]2O1", 7.70],
  ["O=C(NCc1ccc(F)cc1F)c1cn2c(c(O)c1=O)C(=O)N1[C@@H](Cc3ccccc3)CO[C@@H]1C2", 6.42],
  ["COC[C@H]1CCN2C(=O)c3c(O)c(=O)c(C(=O)NCc4ccc(F)cc4F)cn3C[C@H]2O1", 9.05],
  ["CS(=O)(=O)CC[C@H]1CO[C@@H]2Cn3cc(C(=O)NCc4ccc(F)cc4F)c(=O)c(O)c3C(=O)N12", 6.43],
  ["C[C@H]1CCO[C@@H]2Cn3cc(C(=O)NCc4ccc(F)cc4F)c(=O)c(O)c3C(=O)N12", 8.40],
  ["O=C(NCc1ccc(F)cc1F)c1cn2c(c(O)c1=O)C(=O)N1[C@@H](c3ccccc3)CO[C@@H]1C2", 6.21],
  ["O=C(NCc1ccc(F)cc1F)c1cn2c(c(O)c1=O)C(=O)N1CC[C@@H](c3ccccc3)O[C@H]1C2", 7.30],
  ["CC(C)(C)[C@H]1CO[C@@H]2Cn3cc(C(=O)NCc4ccc(F)cc4)c(=O)c(O)c3C(=O)N21", 7.46],
  ["CC(C)(C)[C@H]1CO[C@@H]2Cn3cc(C(=O)NCc4ccc(F)cc4F)c(=O)c(O)c3C(=O)N21", 6.89]
]}

----------
assay notes: Volume of distribution at steady state in Beagle dog at 1 mg/kg, iv and 5 mg/kg, po administered as suspension by LC-MS/MS analysis
Assay type: ADME, organism-based, Canis lupus familiaris
condition notes: in vivo, read-out: Vdss

{"columns": ["compound", "uom", "Vd"],
 "data": [
  ["C[C@@H]1CCO[C@H]2Cn3cc(C(=O)NCc4ccc(F)cc4F)c(=O)c([O-])c3C(=O)N12.[Na+] [DOLUTEGRAVIR SODIUM]", "L/kg", 0.3]
]}

----------
assay notes: Half life in cynomolgus monkey at 1 mg/kg, iv and 5 mg/kg, po administered as capsule by LC-MS/MS analysis
Format: ADME, organism-based, Macaca fascicularis
condition notes: in vivo
recorded metric: half-life (h)

{"columns": ["smiles record", "recorded measurement"],
 "data": [
  ["C[C@H]1CO[C@@H]2Cn3cc(C(=O)NCc4ccc(F)cc4F)c(=O)c(O)c3C(=O)N12", 4]
]}

----------
assay notes: Fraction unbound in Beagle dog plasma at 1 mg/kg, iv and 5 mg/kg, po administered as capsule by equilibrium dialysis technique
Format: ADME, organism-based, Canis lupus familiaris
recorded metric: fraction unbound

{"columns": ["smiles record", "recorded measurement"],
 "data": [
  ["C[C@H]1CO[C@@H]2Cn3cc(C(=O)NCc4ccc(F)cc4F)c(=O)c(O)c3C(=O)N12", 0.007]
]}

----------
assay notes: Half life in Sprague-Dawley rat at 1 mg/kg, iv and 5 mg/kg, po administered as capsule by LC-MS/MS analysis
Assay type: ADME, organism-based
condition notes: in vivo

{"columns": ["molecule", "half-life"],
 "data": [
  ["C[C@H]1CO[C@@H]2Cn3cc(C(=O)NCc4ccc(F)cc4F)c(=O)c(O)c3C(=O)N12 [CABOTEGRAVIR]", "> 18 h"]
]}

----------
assay notes: Oral bioavailability in Sprague-Dawley rat at 5 mg/kg administered as suspension by LC-MS/MS analysis
Format: ADME, organism-based
condition notes: in vivo

{"columns": ["compound", "bioavailability"],
 "data": [
  ["C[C@@H]1CCO[C@H]2Cn3cc(C(=O)NCc4ccc(F)cc4F)c(=O)c([O-])c3C(=O)N12.[Na+] [DOLUTEGRAVIR SODIUM]", "34%"]
]}
